# System: RARg homodimer (NR concentration 270 nM)
# METHOD_DESCRIPTION: PBM binding z-score (relative to random genomic background probes); higher = stronger binding; sequences stand for … in GC…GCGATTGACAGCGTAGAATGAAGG
RESULT_TYPE: PBM binding z-score

Before answering, review these 5 worked examples.
INSERT INTO results (biopolymer_sequence, result) VALUES
  ('ACTAGCAGGCCAAGTTTGTGTCACTCAAACAAAG', 0.0859),
  ('TAGCCCAGGTCATGGGCCAGTATACCACGCGAAC', 4.43),
  ('CCGAGTAGGTTATCGGGCATTCAGGCAACGGTGA', 0.479),
  ('GGAACGAGGGCATTCGAGTTGTTAGCATGGCGAT', 1.17),
  ('CGTCCAAGGTCATTGCTAGGTCAGTGAAAGCATT', 6.66);

Consider ACATGTAGGTTAAGGGTCATTCAGGTTGGTTCGC . Its measured PBM binding z-score is 3.24

Looking up AGAATGAGGTTATACGCAGATCAGGGAAGAAAGT , I found its PBM binding z-score recorded as 0.985

response.value for CCTAGCAGGCCAATCTGGGTCACTCCAGGCTTGA (field: PBM binding z-score) = 1.01

Sample CCTACTGGGCCAAAAAGGTCAGTGATGCCGATAA ; PBM binding z-score observed: 3.5

PBM binding z-score measured on AGAATGAGGTTATACGTAGATCAGGTAAGAAAGT = 1.19

// sample GCTTGTAGATCAAGGTAAAGAAAGACTAAGCTAA , its PBM binding z-score was -0.335

Quick note, PBM binding z-score for TCTCGGAGGACGCGAAAGGTCAGAGCTCGACATC landed at 4.12

----------
# System: THRa:RXRa (NR concentration 90 nM, RXRa partner concentration 90 nM)
# METHOD_DESCRIPTION: PBM binding z-score (relative to random genomic background probes); higher = stronger binding; sequences stand for … in GC…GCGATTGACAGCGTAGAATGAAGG
# Lookup of reported PBM binding z-score keyed by entry

INSERT INTO assay_data (biopolymer_sequence, result_type, result) VALUES
  ('TATCGGAGGACACGAAAGGTCAGAGCTCGACATC', 'PBM binding z-score', 3.95);

Record TAGCCTAGGTCAGATCGGGCCAGCATACGCTATA . Reported PBM binding z-score: 4.27

Given item GATACAGGGTCAAGTCCAGAGTACGCGTATTGAT , the value recorded as its PBM binding z-score is 3.68

ACTATTAGTTGACTTAGGGCAACCGCTACGACGC has a reported PBM binding z-score of 1.39

The sequence listed as AGATTGAGGTTATTAAGATCAGGGAATTGCGGTC has a reported PBM binding z-score of 2.37

Lab book: PBM binding z-score of TGTCAAAGTTCAAACGTAACGTAAGTATCCACAC noted as 2.12

Form: sequence = CCAGACAGGTGATAAGGTAACTCAGCCTCGATTA ; PBM binding z-score = 1.77

Please fill in: PBM binding z-score reported for CTTCCAAGGTCATAGGAGGTCAGTGAAGACAGAT = 5.26

Record summary for TCTTGTAGAACAATAGAGGTTAAGAAAGTGCGCT : reported PBM binding z-score = 1.53

Recorded result, CCTCAGAGGACAACAGGAGGTCAGAGCTGCCAGA , PBM binding z-score: 2.79

Reported PBM binding z-score of ATCTCTAGCTAAAGATAGTTCAGTGAATGCAAAT : 0.114

Measured PBM binding z-score of CCTTACGGGTCACTCCAGGTTATAGCTTCGGAGT : 4.92

Input CCAAACAGGTGAGAAGGTAACTCAGCCTCGATTA . Output PBM binding z-score: 0.199

----------
# Test system: LXRb:RXRa (NR concentration 270 nM, RXRa partner concentration 90 nM)
# METHOD_DESCRIPTION: PBM binding z-score (relative to random genomic background probes); higher = stronger binding; sequences stand for … in GC…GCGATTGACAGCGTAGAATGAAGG
RESULT_TYPE: PBM binding z-score
API note: the answer field is a bare number with no unit suffix.

Please review the entries below; each comes with its answer.
INSERT INTO assay_data (biopolymer_sequence, experimental_target, quantitative_readout) VALUES
  ('AGACAAAGTTCATCTAGGTAACGTAAGATATGCT', 'LXRb:RXRa (NR concentration 270 nM, RXRa partner concentration 90 nM)', 3.92),
  ('TAGCCTAGGTCATTGGGCCAGTGTAGTACGCATC', 'LXRb:RXRa (NR concentration 270 nM, RXRa partner concentration 90 nM)', 2.46),
  ('AGAATGAGGTTAAGATCAGGGCAACAGAATACAT', 'LXRb:RXRa (NR concentration 270 nM, RXRa partner concentration 90 nM)', 2.17),
  ('CCTCGTTGGTCAAGGTCACACACGCTATAGGTAC', 'LXRb:RXRa (NR concentration 270 nM, RXRa partner concentration 90 nM)', 3.8),
  ('GCTTGTAGATCTAGGTTAAGAAAGACTAAGCTAA', 'LXRb:RXRa (NR concentration 270 nM, RXRa partner concentration 90 nM)', -0.166);

So for CAAACTAGGTCACAGAGGTAAAAGTCCGTGCGTA , the logged PBM binding z-score turned out to be 2.58

Noted for ATATGTAGGTTACATCCGGGCCATTCAGGCTATG : its PBM binding z-score reads 1.05

Data point: GTACCAAGGTGAATAGGTCGTAGATGAGTAGGCG ; PBM binding z-score = 0.416

Recorded result, AGTCAAAGTTCAACTAGGTAACGTAAGATATGCT , PBM binding z-score: 4.22

Looking up CGAGACAGGTGAGAAGGTAACTCAGCCTCGATTA , I see its PBM binding z-score listed as -0.343

Form field PBM binding z-score, entry TCAGACAGGCGAAGGTAACTCAGGTACGCAGTCG : 0.255

Reported PBM binding z-score ( GGAACGAGTGCAAAGTTGATAGCATCTGTCGACG ) = -0.315

----------
Consider the following sequences and their measured PBM binding z-score readings.
# System: RXRa DBDmut IVT, anti-RXR (DBD mutation: RXRa K156A/R161A, NR concentration 90 nM)
# METHOD_DESCRIPTION: PBM binding z-score (relative to random genomic background probes); higher = stronger binding; sequences stand for … in GC…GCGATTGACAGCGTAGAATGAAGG

INSERT INTO assay_data (biopolymer_sequence, experimental_target, result_type, result) VALUES
  ('CGAACGAGGGCATGAGTTGATAACAAATGCCGAT', 'RXRa DBDmut IVT, anti-RXR (DBD mutation: RXRa K156A/R161A, NR concentration 90 nM)', 'PBM binding z-score', 2.64),
  ('TGTGAAAGTTCAAAGGTAACGTAAGTATCCACAC', 'RXRa DBDmut IVT, anti-RXR (DBD mutation: RXRa K156A/R161A, NR concentration 90 nM)', 'PBM binding z-score', 4.17),
  ('GCTAGCAGGTCATTTGGGTCACTCAATGACGGGC', 'RXRa DBDmut IVT, anti-RXR (DBD mutation: RXRa K156A/R161A, NR concentration 90 nM)', 'PBM binding z-score', 2.82),
  ('CAGCCTAGGTCAGGACCAGTATAGGAGGAACGTT', 'RXRa DBDmut IVT, anti-RXR (DBD mutation: RXRa K156A/R161A, NR concentration 90 nM)', 'PBM binding z-score', -0.0885),
  ('ATATGTAGGTTAGCTGGGGTCACTCAGACTAGGC', 'RXRa DBDmut IVT, anti-RXR (DBD mutation: RXRa K156A/R161A, NR concentration 90 nM)', 'PBM binding z-score', 1.52);

Just so you know, measured PBM binding z-score for CGACCAAGGTCAATGCTAGGTCAGTGAAAGCATT came out at 3.44

The reported PBM binding z-score of the sequence CCTACTGGGCCATCAGGTCTTTGATATCAACGTT was -0.126

Measured PBM binding z-score of ATATGTAGGTTAAGGGTCATTCGGGTTGGTTCGC : 2.32

Per the record, TCGAGTAGGTTAGTCGGGGCATTCCGCCAACATA has PBM binding z-score of 0.165

Record CGTCCAAGGTGATAGGAGGTCAGTGAAGACAGAT , field PBM binding z-score: 0.227

# PBM binding z-score (sequence: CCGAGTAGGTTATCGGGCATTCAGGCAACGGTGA ) is -0.164

The value of PBM binding z-score measured for the sequence CAAACTAGATCAAAGGTCAAAGTCGAGCCAACCA turned out to be 2.16
